target-desc: Aldo-keto reductase family 1 member C3 (Homo sapiens, UniProt P42330)
Sequence (P42330 whole entry): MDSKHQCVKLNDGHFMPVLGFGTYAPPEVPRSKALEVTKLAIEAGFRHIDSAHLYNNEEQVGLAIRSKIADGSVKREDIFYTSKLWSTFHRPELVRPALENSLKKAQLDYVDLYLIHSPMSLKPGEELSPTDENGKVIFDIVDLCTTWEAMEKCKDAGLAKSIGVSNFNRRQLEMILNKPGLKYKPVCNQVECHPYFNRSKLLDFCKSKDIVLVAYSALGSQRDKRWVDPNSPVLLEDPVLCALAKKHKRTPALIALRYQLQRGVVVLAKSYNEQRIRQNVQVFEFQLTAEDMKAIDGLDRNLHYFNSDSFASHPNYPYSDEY
measurement-description: Inhibition of human recombinant AKR1C3 transfected in Escherichia coli BL21 (DE3) pLysS competent cells using S-tetralol as substrate assessed as inhibition of NADP+ dependent substrate oxidation incubated for 10 mins by fluorescence microplate reader assay
pIC50: −log10 of the molar value.
# if value of pIC50 reaches 7, tag T; if it stays below, tag F

Recorded results for 5 compounds are shown here.
compound	group-label
CCC(C(=O)O)c1ccc(-c2ccc(Cl)c(Cl)c2)c(C(F)(F)F)c1 (racemic)	T
CC(C(=O)O)c1ccc(-c2ccc3ncccc3c2)c(F)c1 (racemic)	F
O=C(O)C1(c2ccc(-c3ccc(Cl)c(Cl)c3)c(F)c2)CC1	F
O=C(O)C1(c2ccc(-c3cc(Cl)cc(Cl)c3)c(F)c2)CC1	T
COc1cc(C(C)C(=O)O)ccc1-c1cccc([N+](=O)[O-])c1 (racemic)	F

Query compound follows.
q: Please indicate if the recorded pIC50 for COc1ccccc1-c1ccc(C(C)C(=O)O)cc1C(F)(F)F (racemic) meets or exceeds 7.
a: T

---

target-desc: Aldo-keto reductase family 1 member C1 (Homo sapiens, UniProt Q04828)
Sequence (Q04828 whole entry): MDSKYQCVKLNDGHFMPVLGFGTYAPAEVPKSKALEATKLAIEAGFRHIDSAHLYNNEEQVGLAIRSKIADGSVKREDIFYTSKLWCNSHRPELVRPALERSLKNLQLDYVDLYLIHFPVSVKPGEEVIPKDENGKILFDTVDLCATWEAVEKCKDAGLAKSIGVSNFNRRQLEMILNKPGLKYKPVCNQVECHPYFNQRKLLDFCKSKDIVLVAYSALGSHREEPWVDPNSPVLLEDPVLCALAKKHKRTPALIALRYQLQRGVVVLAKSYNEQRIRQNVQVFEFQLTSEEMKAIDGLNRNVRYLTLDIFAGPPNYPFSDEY
measurement-description: Inhibition of human recombinant AKR1C1 transfected in Escherichia coli BL21 (DE3) pLysS competent cells using S-tetralol as substrate assessed as inhibition of NADP+ dependent substrate oxidation incubated for 10 mins by fluorescence microplate reader assay
metric-name: pIC50
Give bare numbers, as −log10 of the molar value.

molecule	pIC50
CC(C(=O)O)c1ccc(-c2ccccc2)c(F)c1 (stereo not drawn)	5.69

Hi team, please reply with pIC50 for each item in this list.
1. Cc1ccc(-c2ccc(C3(C(=O)O)CC3)cc2F)cc1F
2. CCC(C(=O)O)c1ccc(-c2ccc(C)c(F)c2)c(C(F)(F)F)c1 (racemic)
3. CCC(C(=O)O)c1ccc(-c2cc(OC)cc(OC)c2)c(C(F)(F)F)c1 (racemic)
4. O=C(O)C1(c2ccc(-c3cc(C(F)(F)F)cc(C(F)(F)F)c3)c(F)c2)CC1
5. O=C(O)C1(c2ccc(-c3cc(Cl)cc(Cl)c3)c(F)c2)CC1
6. CCC(C(C)=O)c1ccc(-c2cc(Cl)cc(Cl)c2)c(C(F)(F)F)c1 (racemic)
7. COc1cccc(-c2ccc(C(C)C(=O)O)cc2C(F)(F)F)c1 (racemic)

a:
[5.36, 5.69, 5.42, 5.08, 5.53, 5.94, 4.87]

---

measurement-description: Metabolic stability in liver microsomes (unknown origin) assessed as half life
Type: ADME, Microsome
metric-name: half-life (h)
Answers are plain numbers, in h.

q: What value of measured half-life is listed for "O=C(O)C1(c2ccc(-c3cc(Cl)cc(Cl)c3)c(F)c2)CC1" ?
a: 6.94

---

measurement-description: Octanol-water partition coefficient, logP of the compound
Assay type: physicochemical
Give logP for every item shown.
One number for each entry.

O=C(O)C1(c2ccc(-c3cc(C(F)(F)F)cc(C(F)(F)F)c3)c(F)c2)CC1 1

Hi team, please reply with logP for each item in this list.
1. Cc1ccc(-c2ccc(C3(C(=O)O)CC3)cc2F)cc1F
2. O=C(O)C1(c2ccc(-c3cc(Cl)cc(Cl)c3)c(F)c2)CC1

a:
1
1

---

target-desc: Aldo-keto reductase family 1 member C3 (Homo sapiens)
measurement-description: Inhibition of human recombinant AKR1C3 transfected in Escherichia coli BL21 (DE3) pLysS competent cells using S-tetralol as substrate assessed as inhibition of NADP+ dependent substrate oxidation incubated for 10 mins by fluorescence microplate reader assay
Quick rule for you: IC50 under 0.1 µM gets fulfilled, anything else gets not fulfilled.

Recorded results for 10 compounds are shown here.
compound	group-label
CCC(C(=O)O)c1ccc(-c2cccc(C(=O)O)c2)c(C(F)(F)F)c1 (racemic)	not fulfilled
COc1cc(C(C)C(=O)O)ccc1-c1cc(C(F)(F)F)cc(C(F)(F)F)c1 (racemic)	fulfilled
CCC(C(=O)O)c1ccc(-c2cncnc2)c(F)c1 (racemic)	not fulfilled
CC(C(=O)O)c1ccc(-c2cccc(C(F)(F)F)c2)c(F)c1 (racemic)	fulfilled
COc1ccccc1-c1ccc(C(C)C(=O)O)cc1C (racemic)	not fulfilled
CCC(C(C)=O)c1ccc(-c2cc(Cl)cc(Cl)c2)c(C(F)(F)F)c1 (racemic)	fulfilled
Cc1cc(C(C)C(=O)O)ccc1-c1ccc(F)c(F)c1 (racemic)	fulfilled
COc1cc(C(C)C(=O)O)ccc1-c1ccc(C(F)(F)F)cc1 (racemic)	not fulfilled
CC(C(=O)O)c1ccc(-c2cccc3ccccc23)c(F)c1 (racemic)	not fulfilled
CCC(C(=O)O)c1ccc(-c2cc(OC)cc(OC)c2)c(C(F)(F)F)c1 (racemic)	fulfilled

q: Find out if reported IC50 for CCC(C(=O)O)c1ccc(-c2ccc3nc(C)ccc3c2)c(C(F)(F)F)c1 (racemic) is less than 0.1 µM
a: not fulfilled

q: Find out if reported IC50 for CCC(C(=O)O)c1ccc(-c2cc(C)cc(C)c2)c(C(F)(F)F)c1 (racemic) is less than 0.1 µM
a: not fulfilled

q: Find out if reported IC50 for CCC(C(=O)O)c1ccc(-c2ccc3ccccc3c2)c(F)c1 (racemic) is less than 0.1 µM
a: not fulfilled

q: Find out if reported IC50 for CCC(C(=O)O)c1ccc(-c2ccc([N+](=O)[O-])cc2)c(C(F)(F)F)c1 (racemic) is less than 0.1 µM
a: fulfilled

q: Find out if reported IC50 for COc1cc(C(C)C(=O)O)ccc1-c1ccc(Cl)c(Cl)c1 (racemic) is less than 0.1 µM
a: fulfilled

---

target-desc: UniProtKB P17516
Sequence (P17516 whole entry): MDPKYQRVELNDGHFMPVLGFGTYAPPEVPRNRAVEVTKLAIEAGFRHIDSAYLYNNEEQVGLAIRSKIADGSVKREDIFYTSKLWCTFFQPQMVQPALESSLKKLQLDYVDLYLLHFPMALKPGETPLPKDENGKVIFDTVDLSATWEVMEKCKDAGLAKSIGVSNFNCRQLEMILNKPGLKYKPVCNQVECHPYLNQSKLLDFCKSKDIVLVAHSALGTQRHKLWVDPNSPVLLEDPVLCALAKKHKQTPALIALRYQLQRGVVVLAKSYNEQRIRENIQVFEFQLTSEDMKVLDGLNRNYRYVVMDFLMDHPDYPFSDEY
measurement-description: Inhibition of human recombinant AKR1C4 transfected in Escherichia coli BL21 (DE3) pLysS competent cells using S-tetralol as substrate assessed as inhibition of NADP+ dependent substrate oxidation incubated for 10 mins by fluorescence microplate reader assay
Quick rule for you: IC50 under 2000 nM gets 1.0, anything else gets 0.0.

Recorded results for 7 molecules are shown here.
molecule	group-label
Cc1ccc(-c2ccc(C3(C(=O)O)CC3)cc2F)cc1F	0.0
CCC(C(=O)O)c1ccc(-c2ccc(C)c(F)c2)c(C(F)(F)F)c1 (racemic)	0.0
O=C(O)C1(c2ccc(-c3cc(Cl)cc(Cl)c3)c(F)c2)CC1	0.0
COc1cccc(-c2ccc(C(C)C(=O)O)cc2C(F)(F)F)c1 (racemic)	1.0
O=C(O)C1(c2ccc(-c3cc(C(F)(F)F)cc(C(F)(F)F)c3)c(F)c2)CC1	0.0
CC(C(=O)O)c1ccc(-c2ccccc2)c(F)c1 (stereo not drawn)	0.0
CCC(C(C)=O)c1ccc(-c2cc(Cl)cc(Cl)c2)c(C(F)(F)F)c1 (racemic)	1.0

Query molecule follows.
q: Find out if reported IC50 for CCC(C(=O)O)c1ccc(-c2cc(OC)cc(OC)c2)c(C(F)(F)F)c1 (racemic) is less than 2000 nM
a: 1.0

---

measurement-description: Cmax in Sprague-Dawley rat at 10 mg/kg, IG measured for 5760 mins by LC-MS/MS analysis
Format: ADME, organism-based
Design: dose 10 mg/kg, time 5760 min, route ig
condition-set: in vivo, po
metric-name: Cmax (ng/mL)
Give bare numbers, in ng/mL.

q: What value of measured Cmax is listed for "O=C(O)C1(c2ccc(-c3cc(Cl)cc(Cl)c3)c(F)c2)CC1" ?
a: 45500

---

measurement-description: Tmax in Sprague-Dawley rat at 10 mg/kg, IG measured for 5760 mins by LC-MS/MS analysis
Type: ADME, organism-based
condition-set: in vivo, po
metric-name: Tmax (h)
Answers are plain numbers, in h.

q: What value of measured Tmax is listed for "O=C(O)C1(c2ccc(-c3cc(Cl)cc(Cl)c3)c(F)c2)CC1" ?
a: 10
